# measured-target: T1, HpNikR (Helicobacter pylori G27 (strain from …, UniProt A1YSQ9 1-148))
# T1 sequence: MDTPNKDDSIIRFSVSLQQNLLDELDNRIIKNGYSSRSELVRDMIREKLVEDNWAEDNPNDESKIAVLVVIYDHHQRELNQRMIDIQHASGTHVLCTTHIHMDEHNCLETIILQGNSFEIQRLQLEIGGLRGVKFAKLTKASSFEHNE
# assay-protocol: fluorescence anisotropy; Ni(II) 1.2 eq per monomer; Hill n = 1.9 ± 0.2; FA: 5 nM labeled DNA, 20 mM Tris pH 7.6, 100 mM NaCl, 3 mM MgSO4, temperature not stated (metal loading at room temperature); 19F-NMR: same buffer with 10% D2O, 400-900 uM monomer, DNA 1 eq per tetramer, variable temperature from 4 C
# cond: protein: recombinant; tags: none; chain copies: 4; label: fluorescein at central T in the spacer of strand 1 (printed [F] after T14); blunt
measured-attribute: pKd
Please note pKd is a logarithmic value: minus log10 of concentration in mol/L. Answer with that number alone.

Given the entry ureA-perf-F (32 bp) (dsDNA) DNA 1: ATATATTATTAATTCATTTTAAATAATAATTA DNA 2: TAATTATTATTTAAAATGAATTAATAATATAT , report its measured pKd.
8.33
